test: In vivo toxicological study in rats: haematology; set-up: species or system rats of the Wistar strain; details: male, 300 mg/kg oral daily 7 d
The entries below are paired with their reported RDW %.
Give a bare numeral; the unit % is implied.

// below: answered molecules
molecule-smiles: COc1ccc(C(=O)Nc2sc3c(c2C#N)CCCCC3)cc1OC
quantity-name: RDW %
numeric-readout: 14.0

molecule-smiles: N#Cc1c(NC(=O)c2cccc3ccccc23)sc2c1CCN(CC(=O)Nc1cccc(Br)c1)C2
quantity-name: RDW %
numeric-readout: 15.1

molecule-smiles: COc1ccccc1NC(=O)N1CCc2c(sc(NC(=O)c3cccc4ccccc34)c2C#N)C1
quantity-name: RDW %
numeric-readout: 14.4

Sure, the documented RDW % for "N#Cc1c(NC(=O)c2cccc3ccccc23)sc2c1CCN(C(=O)Nc1ccccc1OC(F)(F)F)C2" is 15.3
